Assay: Cmax in ICR mouse at 1 mg/kg, iv measured upto 24 hrs by LC-MS/MS analysis
Assay type: ADME, organism-based
Conditions: in vivo
Measured parameter: Cmax
Mention the unit after the number when you answer.

Documented Cmax of `CCNC(=O)[C@@H](C)[C@H]1CC[C@H]2[C@@H]3CC=C4C(C)(C)c5nnsc5C[C@]4(C)[C@H]3CC[C@]12C` : 484 ng/mL
